- Tested on: T-cell line
- Test name: Immunosuppressive activity in human T cells assessed as reduction in anti-CD3/anti-CD28 antibody-induced cell proliferation incubated for 72 hrs by CFSE based flow cytometry
- Type: functional
Reported endpoint: IC50

• COC(=O)N1c2c(OC)cccc2[C@@]23[C@H]4CN5CCC[C@@](CC[C@]12C(=O)O)(CC4=O)[C@H]53 = 27.8 µM
• CC[C@]12CCCn3ccc(c31)-c1ccccc1NC(=O)CC2 = 1 µM
• C[N+]12CCC[C@]34CC[C@@]5(Nc6ccccc6[C@]5(CC1)[C@H]32)[C@H](C(=O)[O-])C4 (some centres undefined) = 21.6 µM
• O=C1[C@H]2CN3CCC[C@]45CC[C@@]6(Nc7ccccc7[C@@]26[C@@H]34)[C@@]1(O)C5 = 25.4 µM
